Reference source for all entries: ChEMBL document CHEMBL1221298

system: Radical scavenging activity; test: Antioxidant activity assessed as DPPH radical scavenging activity; type: functional
// classify: if (IC50 < 900 µg/mL) 1 (yes) else 0 (no)

Solved entries:
molecule="N#CC1=C(N)OC(c2c[nH]c3ccccc23)=C(C#N)C1c1ccc(Br)cc1 (stereo not drawn)" system="Radical scavenging activity" assigned_category="1 (yes)"
molecule=O=C1O[C@H]([C@@H](O)CO)C(O)=C1O system="Radical scavenging activity" assigned_category="1 (yes)"
molecule="N#CC1=C(N)OC(c2c[nH]c3ccccc23)=C(C#N)C1c1ccccc1Cl (stereo not drawn)" system="Radical scavenging activity" assigned_category="1 (yes)"
molecule="COc1cc(Br)c(C2C(C#N)=C(N)OC(c3c[nH]c4ccccc34)=C2C#N)cc1OC (stereo not drawn)" system="Radical scavenging activity" assigned_category="1 (yes)"
molecule="N#CC1=C(N)OC(c2c[nH]c3ccccc23)=C(C#N)C1c1ccccc1 (stereo not drawn)" system="Radical scavenging activity" assigned_category="1 (yes)"

Challenge: Is it true that IC50 reported for CN(C)c1ccc(C2C(C#N)=C(N)OC(c3c[nH]c4ccccc34)=C2C#N)cc1 (stereo not drawn) is less than 900 µg/mL?
Response given: 1 (yes)

Challenge: Is it true that IC50 reported for Cc1ccccc1C1C(C#N)=C(N)OC(c2c[nH]c3ccccc23)=C1C#N (stereo not drawn) is less than 900 µg/mL?
Response given: 0 (no)

Challenge: Is it true that IC50 reported for Cc1ccc(C2C(C#N)=C(N)OC(c3c[nH]c4ccccc34)=C2C#N)cc1 (stereo not drawn) is less than 900 µg/mL?
Response given: 0 (no)

---

tested on: Bacillus cereus; test: microbe, parasite or virus in culture; format: functional; conditions: ATCC 11778, 24 h
Description: Antimicrobial activity against Bacillus cereus ATCC 11778 after 24 hrs by agar streak dilution method
REPORTED ENDPOINT: MIC (µg/mL)
The reply should be a number in µg/mL, with the unit left off.

# example entries with known answers
compound="N#CC1=C(N)OC(c2c[nH]c3ccccc23)=C(C#N)C1c1ccc(F)cc1 (centres undefined)" reported_endpoint=MIC uom=µg/mL observed_result=20.3
compound="Cc1ccc(C2C(C#N)=C(N)OC(c3c[nH]c4ccccc34)=C2C#N)cc1 (centres undefined)" reported_endpoint=MIC uom=µg/mL observed_result=25.8
compound="COc1ccc(C2C(C#N)=C(N)OC(c3c[nH]c4ccccc34)=C2C#N)cc1 (centres undefined)" reported_endpoint=MIC uom=µg/mL observed_result=24.5

Kindly consider the entry below.
Challenge: Can you look up the measured MIC of N#CC1=C(N)OC(c2c[nH]c3ccccc23)=C(C#N)C1c1ccc(Cl)cc1 (centres undefined) for me?
Response given: 19

---

system: Staphylococcus aureus; assay: microbe, parasite or virus in culture; type: functional; conditions: ATCC 9144, 24 h
Description: Antimicrobial activity against Staphylococcus aureus ATCC 9144 after 24 hrs by agar streak dilution method
REPORTED ENDPOINT: MIC (µg/mL)
The reply should be a number in µg/mL, with the unit left off.

# example entries with known answers
molecule="N#CC1=C(N)OC(c2c[nH]c3ccccc23)=C(C#N)C1c1ccc(Cl)cc1 (centres undefined)" system="Staphylococcus aureus" observed_result=13.4
molecule="COc1cc(Br)c(C2C(C#N)=C(N)OC(c3c[nH]c4ccccc34)=C2C#N)cc1OC (centres undefined)" system="Staphylococcus aureus" observed_result=21
molecule="N#CC1=C(N)OC(c2c[nH]c3ccccc23)=C(C#N)C1c1ccc(F)cc1 (centres undefined)" system="Staphylococcus aureus" observed_result=16.8
molecule="COc1ccc(C2C(C#N)=C(N)OC(c3c[nH]c4ccccc34)=C2C#N)cc1OC (centres undefined)" system="Staphylococcus aureus" observed_result=31.8
molecule="COc1ccc(C2C(C#N)=C(N)OC(c3c[nH]c4ccccc34)=C2C#N)cc1 (centres undefined)" system="Staphylococcus aureus" observed_result=15.4

Challenge: Can you look up the measured MIC of Cc1ccccc1C1C(C#N)=C(N)OC(c2c[nH]c3ccccc23)=C1C#N (centres undefined) for me?
Response given: 25

Challenge: Can you look up the measured MIC of N#CC1=C(N)OC(c2c[nH]c3ccccc23)=C(C#N)C1c1cccc2ccccc12 (centres undefined) for me?
Response given: 28.6

Challenge: Can you look up the measured MIC of N#CC1=C(N)OC(c2c[nH]c3ccccc23)=C(C#N)C1c1cccc(Br)c1 (centres undefined) for me?
Response given: 27.5

Challenge: Can you look up the measured MIC of N#CC1=C(N)OC(c2c[nH]c3ccccc23)=C(C#N)C1c1cccc([N+](=O)[O-])c1 (centres undefined) for me?
Response given: 24
